The measurements presented in this section are drawn from PubChem BioAssay (Tox21).

Biological target: Muscarinic acetylcholine receptor M1 (Homo sapiens) (UniProt P11229)
Sequence (P11229 whole entry, looked up): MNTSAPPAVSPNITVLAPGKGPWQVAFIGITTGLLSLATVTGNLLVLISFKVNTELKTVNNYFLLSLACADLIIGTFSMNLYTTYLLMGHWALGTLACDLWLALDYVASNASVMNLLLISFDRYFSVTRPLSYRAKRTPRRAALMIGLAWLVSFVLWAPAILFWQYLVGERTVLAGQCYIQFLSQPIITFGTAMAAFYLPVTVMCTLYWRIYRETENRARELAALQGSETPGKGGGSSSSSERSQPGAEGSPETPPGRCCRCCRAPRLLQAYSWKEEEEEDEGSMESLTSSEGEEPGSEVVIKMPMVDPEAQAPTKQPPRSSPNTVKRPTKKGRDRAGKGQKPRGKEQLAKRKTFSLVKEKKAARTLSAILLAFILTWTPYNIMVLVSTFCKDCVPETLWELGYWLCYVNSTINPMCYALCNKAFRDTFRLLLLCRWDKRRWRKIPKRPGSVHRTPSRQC
Test: Cholinergic receptor muscarinic 1 (CHRM1) small molecule agonists, cell-based qHTS assay (AID 1963589); also: nearly all actives have a fitted effect of over 35% in size
Settings: CHRM1-CHO cells, agonist mode, calcium flux fluorescence; series mostly up to 76.8 µM
Activity calls are given as the source filed them. Calls follow the shape of the full dose curve.
Assay Endpoint: activation

// solved cases for activation follow
• CC(C)(OOC(C)(C)c1ccccc1)c1ccccc1 = inactive
• CCC(C)C(C)(COC(N)=O)COC(N)=O (stereo not drawn) = inactive
• CC(C(=O)c1ccccc1)N(C)C (stereo not drawn) = inactive
• Cc1ncc(CNC(=O)N(CCCl)N=O)c(N)n1 = inactive
• O=C/C=C/c1ccco1 = inactive
• CC(C)Nc1ccc(Nc2ccccc2)cc1 = inactive
• Cl/C=C\CCl = inactive

# input for lookup
Task: Look at this compound and give its reported activation. ClCC(Cl)(Cl)Cl
Output: inactive
